Assay: Solubility pH 7.4
Format: physicochemical
Details: aqueous buffer, Table 1
readoutKind: solubility

[[record]]
structurestring = "Cc1cc(N2CCN(C(=O)OC(C)(C)C)CC2)c(C#N)cc1-n1c(=N)n(C)c2cnc3ccc(-c4ccc(Cl)cc4)cc3c21"
result = "< 1 µg/mL"

[[record]]
structurestring = "Cc1ccc(C#N)cc1-n1c(=N)n(C)c2cnc3ccc(-c4cccc(N)c4)cc3c21"
result = "> 40 µg/mL"

[[record]]
structurestring = "Cn1c(=N)n(-c2ccc(N3CCOCC3)c(C#N)c2)c2c3cc(-c4ccc(Cl)cc4)ccc3ncc21"
result = "< 1 µg/mL"

[[record]]
structurestring = "CC(=O)N1CCN([C@H]2C[C@H](n3c(=N)n(C)c4cnc5ccc(-c6ccc(Cl)cc6)cc5c43)C2)CC1"
result = "> 48 µg/mL"

[[record]]
structurestring = "Cn1c(=N)n(-c2cccc(S(N)(=O)=O)c2)c2c3cc(-c4ccc(Cl)cc4)ccc3ncc21"
result = "6.2 µg/mL"

[[record]]
structurestring = "Cc1ccc(C#N)cc1-n1c(=N)n(C)c2cnc3ccc(-c4cccc(CN(C)C)c4)cc3c21"
result = "> 44 µg/mL"

[[record]]
structurestring = "Cc1ccc(C#N)cc1-n1c(=N)n(C)c2cnc3ccc(-c4ccc5c(c4)CC(=O)N5)cc3c21"
result = "3.6 µg/mL"

[[record]]
structurestring = "Cc1ccc(-n2c(=N)n(C)c3cnc4ccc(-c5ccc(Cl)cc5)cc4c32)cc1C#N"
result = "< 1 µg/mL"

[[record]]
structurestring = "Cc1ccccc1-c1ccc2ncc3c(c2c1)n(-c1cc(C#N)ccc1C)c(=N)n3C"
result = "19.2 µg/mL"

[[record]]
structurestring = "Cc1ccc(C#N)cc1-n1c(=N)n(C)c2cnc3ccc(-c4cnn(C)c4)cc3c21"
result = "40.4 µg/mL"

[[record]]
structurestring = "Cn1cc(-n2c(=N)n(C)c3cnc4ccc(-c5ccc(Cl)cc5)cc4c32)cn1"
result = "> 38 µg/mL"

[[record]]
structurestring = "COc1ccc(-c2ccc3ncc4c(c3c2)n(-c2cc(C#N)ccc2C)c(=N)n4C)cc1OC"
result = "> 44 µg/mL"

[[record]]
structurestring = "Cn1c(=N)n([C@H]2CC[C@H](N3CCNCC3)CC2)c2c3cc(-c4ccc(Cl)cc4)ccc3ncc21"
result = "> 47 µg/mL"

[[record]]
structurestring = "COc1ccc(C#N)cc1-n1c(=N)n(C)c2cnc3ccc(-c4ccc(Cl)cc4)cc3c21"
result = "12.2 µg/mL"

[[record]]
structurestring = "Cc1ccc(C#N)cc1-n1c(=N)n(C)c2cnc3ccc(-c4ccccc4O)cc3c21"
result = "> 40 µg/mL"

[[record]]
structurestring = "Cc1ccc(C#N)cc1-n1/c(=N/S(N)(=O)=O)n(C)c2cnc3ccc(-c4ccc(Cl)cc4)cc3c21"
result = "< 1 µg/mL"

[[record]]
structurestring = "Cc1ccc(S(C)(=O)=O)cc1-n1c(=N)n(C)c2cnc3ccc(-c4ccc(Cl)cc4)cc3c21"
result = "> 47 µg/mL"

[[record]]
structurestring = "Cn1c(=N)n(-c2cnc(N3CCOCC3)c(C#N)c2)c2c3cc(-c4ccc(Cl)cc4)ccc3ncc21"
result = "< 1 µg/mL"

[[record]]
structurestring = "Cc1cc(N2CCN(C)CC2)c(C#N)cc1-n1c(=N)n(C)c2cnc3ccc(-c4ccc(Cl)cc4)cc3c21"
result = "37.6 µg/mL"

[[record]]
structurestring = "Cn1c(=N)n(-c2cccc(C(F)(F)F)c2)c2c3cc(-c4ccc(Cl)cc4)ccc3ncc21"
result = "< 1 µg/mL"

[[record]]
structurestring = "Cc1ncc(C#N)cc1-n1c(=N)n(C)c2cnc3ccc(-c4ccc(Cl)cc4)cc3c21"
result = "3.5 µg/mL"

